# target under test: CXCR4 (Homo sapiens, UniProt P61073)
# Sequence (P61073 whole entry): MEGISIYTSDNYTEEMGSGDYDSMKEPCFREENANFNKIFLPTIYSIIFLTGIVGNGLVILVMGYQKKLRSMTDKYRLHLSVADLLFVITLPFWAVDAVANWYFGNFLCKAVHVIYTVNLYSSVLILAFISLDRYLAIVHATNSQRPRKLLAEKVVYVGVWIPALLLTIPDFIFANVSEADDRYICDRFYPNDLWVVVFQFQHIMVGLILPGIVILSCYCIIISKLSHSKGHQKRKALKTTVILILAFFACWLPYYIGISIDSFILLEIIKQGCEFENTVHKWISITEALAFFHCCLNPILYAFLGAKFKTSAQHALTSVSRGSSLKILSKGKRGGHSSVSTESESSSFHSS
# method: Human CXCR4-binding assay ([125I]CXCL12 displacement, hCXCR4-transfected HEK293T membranes)
# Set-up: expressed in transfected cells; host or cells: HEK293T
measured endpoint: IC50

[ask] Give its IC50 value. Item: Cc1cc(NC2CCN(C(=O)CCNCC(=O)O)CC2)nc(NCc2nc(CCCNCCCNC3CCCCC3)co2)n1 [BPRCX807]
[reply] 40.4 nM

---

Below: a set of entries, each annotated with reported pIC50.
# target under test: hERG (human K+ channel) (Homo sapiens)
# method: hERG patch-clamp assay (hERG-CHO, automated patch-clamp)
pIC50: −log10 of the molar value.

[ask] Give its pIC50 value. Item: Cc1cc(NC2CCN(C(=O)CCNCC(=O)O)CC2)nc(NCc2nc(CCCNCCCNC3CCCCC3)co2)n1 [BPRCX807]
[reply] < 4.00

[ask] Give its pIC50 value. Item: c1cc(CN2CCCNCCNCCCNCC2)ccc1CN1CCCNCCNCCCNCC1 [AMD3100, reference compound]
[reply] < 4.00

---

# target under test: hERG (Homo sapiens)
# Construct: host or cells: CHO (hERG-CHO)
# method: hERG patch-clamp assay (hERG-CHO, automated patch-clamp)
# Type: cell-based
# measurement context: human, CHO cells that express hERG; 1 µM
measured endpoint: inhibition at 1 µM (%)
Numeric only. Scale: %

[ask] Give its inhibition at 1 µM value. Item: `Cc1cc(NC2CCN(C(=O)CCNCC(=O)O)CC2)nc(NCc2nc(CCCNCCCNC3CCCCC3)co2)n1`
[reply] 13.8

---

# target under test: hERG (Homo sapiens, UniProt Q12809)
# Construct: host or cells: CHO (hERG-CHO)
# Sequence (Q12809 whole entry): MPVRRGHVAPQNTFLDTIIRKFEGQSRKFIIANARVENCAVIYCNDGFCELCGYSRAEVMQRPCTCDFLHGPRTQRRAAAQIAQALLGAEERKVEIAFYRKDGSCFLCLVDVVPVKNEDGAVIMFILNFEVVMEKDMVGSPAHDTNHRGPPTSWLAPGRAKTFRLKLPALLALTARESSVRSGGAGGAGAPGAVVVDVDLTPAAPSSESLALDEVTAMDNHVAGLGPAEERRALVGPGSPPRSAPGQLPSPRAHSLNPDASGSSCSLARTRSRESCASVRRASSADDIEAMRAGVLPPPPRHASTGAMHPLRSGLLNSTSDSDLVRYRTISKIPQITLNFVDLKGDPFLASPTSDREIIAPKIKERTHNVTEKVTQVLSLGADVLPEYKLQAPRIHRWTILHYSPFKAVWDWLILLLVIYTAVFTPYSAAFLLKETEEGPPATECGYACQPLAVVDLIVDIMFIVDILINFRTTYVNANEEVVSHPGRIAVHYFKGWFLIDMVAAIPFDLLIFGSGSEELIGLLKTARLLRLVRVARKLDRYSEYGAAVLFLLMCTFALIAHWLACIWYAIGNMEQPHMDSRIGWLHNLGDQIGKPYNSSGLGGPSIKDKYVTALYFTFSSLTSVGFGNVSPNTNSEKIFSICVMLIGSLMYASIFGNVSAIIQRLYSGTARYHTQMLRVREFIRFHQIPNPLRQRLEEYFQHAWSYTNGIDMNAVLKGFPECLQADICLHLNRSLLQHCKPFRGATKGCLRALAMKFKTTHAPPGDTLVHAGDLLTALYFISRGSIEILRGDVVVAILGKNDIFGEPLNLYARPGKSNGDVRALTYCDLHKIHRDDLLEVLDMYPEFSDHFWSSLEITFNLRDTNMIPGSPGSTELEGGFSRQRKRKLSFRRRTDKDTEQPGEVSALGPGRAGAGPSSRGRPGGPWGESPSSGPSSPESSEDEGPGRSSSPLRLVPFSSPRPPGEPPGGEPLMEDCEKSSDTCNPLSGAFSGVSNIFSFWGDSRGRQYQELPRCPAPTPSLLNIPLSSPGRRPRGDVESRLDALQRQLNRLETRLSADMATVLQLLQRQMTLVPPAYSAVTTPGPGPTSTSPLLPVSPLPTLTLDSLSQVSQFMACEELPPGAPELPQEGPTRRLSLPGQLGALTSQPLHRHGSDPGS
# method: hERG patch-clamp assay (hERG-CHO, automated patch-clamp)
# Type: cell-based
# measurement context: human, CHO cells that express hERG; 10 µM
measured endpoint: inhibition at 10 µM

[ask] Give its inhibition at 10 µM value. Item: Cc1cc(NC2CCN(C(=O)CCNCC(=O)O)CC2)nc(NCc2nc(CCCNCCCNC3CCCCC3)co2)n1 [BPRCX807]
[reply] 9%
